# Measured Target: T1, recombinant human CD40 monomer (human, UniProt P25942 21-193)
# T1 construct: also called huCD40-monomer; soluble human CD40
# T1 sequence (P25942 21-193 limits assumed): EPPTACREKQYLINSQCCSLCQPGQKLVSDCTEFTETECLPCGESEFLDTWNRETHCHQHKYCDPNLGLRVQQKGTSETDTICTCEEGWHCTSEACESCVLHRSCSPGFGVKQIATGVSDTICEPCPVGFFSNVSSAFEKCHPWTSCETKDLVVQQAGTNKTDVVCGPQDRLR
# Measurement Notes: BLI (Octet RED); antibody supernatant captured on protein A sensors, huCD40-monomer in solution
pKd: −log10 of the molar value.
# Lookup of reported pKd keyed by entry
Quantity Name: pKd

5F11 (parental) (antibody, V domains shown, Mouse variable domains; also called 1802.3717.5F11.A11.E7; mAb 5F11) VH: QVQLQQSAAELARPGASVKMSCKASGYTFTDLSMHWIKQRPGQGLEWIGYITPSSGYTAYNQKFKGKTTLTADKSSSTAYMQLSSLTSEDSAVYYCARLILQRGAYWGQGTLVTVSA VL: DIVLTQSPASLAVSLGQRATISCRASKNVDSYGNSFMHWYQQKPGQPPKLLIYRASNLESGIPARFGGSGSGTDFTLTINPVEADDVATYYCQQSNEDPLTFGAGTKLELK = 8.33
19G3 (parental) (antibody, V domains shown, Mouse variable domains; also called 1802.3582.19G3.F10.E1; mAb 19G3) VH: EVQLVESGGGLVKPGGSLKLSCAASGFTFSSYAMSWVRQSPEKRLEWVAEISGGGSYTYYPDTVTGRFTISRDNAKNTLYLEMSSLRSEDTAMYYCASRAYWGQGTLVTVSA VL: DVLMTQTPLSLPVSLGDQASISCRSSQSIVHSNGNTYFEWYLQKPGQSPKLLIYKVSNRFSGVPDRFSGSGSGTDFTLKISRVEAEDLGVYYCFQGSHVPYTFGGGTKLEIK = 6.06
5G7-22 (antibody, human IgG1, kappa, V domains shown, Humanized; IgG1f) VH: QVQLVQSGAEVKKPGASVKVSCKASGYTFTDYNMDWVRQAPGQGLEWMGDINPKNGGTIYNLKFKGRVTLTTDTSTSTAYMELRSLRSDDTAVYYCVRRMDYWGQGTTVTVSS VL: DIQMTQSPSSLSASVGDRVTITCRASQDISNYLNWYQQKPGKVPKLLIYYISRLHSGVPSRFSGSGSGTDFTLTISSLQPEDVATYYCQQGNTLPYTFGGGTKVEIKR = 7.30
8E8-62 (antibody, human IgG1, kappa, V domains shown, Humanized; IgG1f) VH: QVQFVQSGAEVKKPGSSVKVSCKASGYTFTSYWMQWVRQAPGQGLEWMGTIYPGDGDSRYNQKFKGKALLTADKSTSTAYMELSSLRSEDTAVYYCARFSLYEGYPYYFDYWGQGTTVTVSS VL: DIVMTQSPLSLPVTPGEPASISCRSSQSLVHRNGNTYLHWYLQKPGQSPQLLIYRVSNRFSGVPDRFSGSGSGTDFTLKISRVEAEDVGVYYCSQSTHFPYTFGGGTKVEIKR = 7.51
19G3-11 (antibody, human IgG1, kappa, V domains shown, Humanized; IgG1f) VH: EVQLVESGGGLVKPGGSLRLSCAASGFTFSSYAMSWVRQAPGKGLEWVSEISGGGSYTYYPDTVTGRFTISRDNAKNSLYLQMNSLRAEDTAVYYCASRAYWGQGTLVTVSS VL: DIVMTQTPLSLPVTPGEPASISCRSSQSIVHSNGNTYFEWYLQKPGQSPQLLIYKVSNRFSGVPDRFSGSGSGTDFTLKISRVEAEDVGVYYCFQGSHVPYTFGGGTKVEIKR = 6.07
